// data source = patent EP0067666A1

Recorded Single sc Dose PD50 (mg/kg) ± 95% Confidence Limits Klebsiella pneumoniae MGH-2 for the following compounds
Tested on: Klebsiella pneumoniae MGH-2
Assay: Acute mouse protection test
Format: in vivo
Conditions: subcutaneous, single dose given at time of challenge, compound B series
Express it in mg/kg; write the number only.

compound | experimental_value
CCn1cc(C(=O)O)c(=O)c2cc(F)c(N3CCNCC3)nc21 [B Glutamate] | 1.9
CCn1cc(C(=O)O)c(=O)c2cc(F)c(N3CCNCC3)nc21 [Compound B, reference compound] | 2.6

# input Need Single sc Dose PD50 (mg/kg) ± 95% Confidence Limits Klebsiella pneumoniae MGH-2, item CCn1cc(C(=O)O)c(=O)c2cc(F)c(N3CCNCC3)nc21 [B Gluconate]
# output 5.2

# input Need Single sc Dose PD50 (mg/kg) ± 95% Confidence Limits Klebsiella pneumoniae MGH-2, item CCn1cc(C(=O)O)c(=O)c2cc(F)c(N3CCNCC3)nc21 [B Aspartate]
# output 1.6

* * *

Assay: 10x dilution of soluble forms with standard IV solutions (pH, precipitate)
Format: physicochemical
Conditions: concentrated Cpd B solution diluted 10x with 5% Dextrose; precipitate at 4 hr
observation_type: Solution 2 ppt 4 hr

Past entries and their recorded results:
compound | experimental_value
CCn1cc(C(=O)O)c(=O)c2cc(F)c(N3CCNCC3)nc21 [B Methane Sulphonic] | hazy
CCn1cc(C(=O)O)c(=O)c2cc(F)c(N3CCNCC3)nc21 [B Lactic] | hazy
CCn1cc(C(=O)O)c(=O)c2cc(F)c(N3CCNCC3)nc21 [B L-Glutamic] | slight
CCn1cc(C(=O)O)c(=O)c2cc(F)c(N3CCNCC3)nc21 [B L-Cysteic] | hazy

In the following, a different compound is considered.
# input Need Solution 2 ppt 4 hr, item CCn1cc(C(=O)O)c(=O)c2cc(F)c(N3CCNCC3)nc21 [B Acetic]
# output slight

* * *

Tested on: Pseudo. aeruginosa UI-18
Assay: Antibacterial activity, MIC
Format: cell-based
Settings: based on content of compound B
Recorded MIC µg/ml Pseudo. aeruginosa UI-18 for the following compounds
Param answer (str): number followed by unit.

compound | test_target | MIC µg/ml Pseudo. aeruginosa UI-18
CCn1cc(C(=O)O)c(=O)c2cc(F)c(N3CCNCC3)nc21 [Compound B, reference compound] | Pseudo. aeruginosa UI-18 | 0.8 µg/mL

# input Need MIC µg/ml Pseudo. aeruginosa UI-18, item CCn1cc(C(=O)O)c(=O)c2cc(F)c(N3CCNCC3)nc21 [B Glutamate]
# output 0.2 µg/mL

# input Need MIC µg/ml Pseudo. aeruginosa UI-18, item CCn1cc(C(=O)O)c(=O)c2cc(F)c(N3CCNCC3)nc21 [B Gluconate]
# output 0.8 µg/mL

# input Need MIC µg/ml Pseudo. aeruginosa UI-18, item CCn1cc(C(=O)O)c(=O)c2cc(F)c(N3CCNCC3)nc21 [B Aspartate]
# output 0.4 µg/mL

* * *

Recorded Conc. of CPD B for the following molecules
Test: Solubility screening procedure (concentration and pH of filtrate)
Format: physicochemical
Conditions: compound B + equimolar acid, amino acid or base in deionized water, room temperature, filtrate, UV assay
Express it in µg/mL; write the number only.

Past entries and their recorded results:
molecule | Conc. of CPD B / µg/mL
CCn1cc(C(=O)O)c(=O)c2cc(F)c(N3CCNCC3)nc21 [B Succinic] | 75000
CCn1cc(C(=O)O)c(=O)c2cc(F)c(N3CCNCC3)nc21 [B L-Proline] | 1100
CCn1cc(C(=O)O)c(=O)c2cc(F)c(N3CCNCC3)nc21 [B Hydrochloric] | 7000
CCn1cc(C(=O)O)c(=O)c2cc(F)c(N3CCNCC3)nc21 [B Methane Sulphonic] | 211000
CCn1cc(C(=O)O)c(=O)c2cc(F)c(N3CCNCC3)nc21 [B L-Aspartic] | 165000
CCn1cc(C(=O)O)c(=O)c2cc(F)c(N3CCNCC3)nc21 [B Glycine] | 1200
CCn1cc(C(=O)O)c(=O)c2cc(F)c(N3CCNCC3)nc21 [B Citric] | 1300
CCn1cc(C(=O)O)c(=O)c2cc(F)c(N3CCNCC3)nc21 [B Acetic] | 195000

# input Need Conc. of CPD B, item CCn1cc(C(=O)O)c(=O)c2cc(F)c(N3CCNCC3)nc21 [B Diethanolamine]
# output 4300

# input Need Conc. of CPD B, item CCn1cc(C(=O)O)c(=O)c2cc(F)c(N3CCNCC3)nc21 [B Choline]
# output 38200

* * *

Test: 10x dilution of soluble forms with standard IV solutions (pH, precipitate)
Assay type: physicochemical
Conditions: Cpd A salt solution diluted 10x with 5% Dextrose; precipitate at 24 hr
observation_type: Solution 2 ppt 24 hr

Past entries and their recorded results:
molecule | experimental_value
CCn1cc(C(=O)O)c(=O)c2cc(F)c(N3CCNCC3)cc21 [A L-Aspartic] | slight
CCn1cc(C(=O)O)c(=O)c2cc(F)c(N3CCNCC3)cc21 [A Acetic] | no
CCn1cc(C(=O)O)c(=O)c2cc(F)c(N3CCNCC3)cc21 [A L-Cysteic] | no
CCn1cc(C(=O)O)c(=O)c2cc(F)c(N3CCNCC3)cc21 [A L-Glutamic] | no
CCn1cc(C(=O)O)c(=O)c2cc(F)c(N3CCNCC3)cc21 [A Methane Sulphonic] | no
CCn1cc(C(=O)O)c(=O)c2cc(F)c(N3CCNCC3)cc21 [A Hydrochloric] | no

In the following, a different molecule is considered.
# input Need Solution 2 ppt 24 hr, item CCn1cc(C(=O)O)c(=O)c2cc(F)c(N3CCNCC3)cc21 [A Isethionic]
# output no

* * *

Assay: Solubility screening procedure (concentration and pH of filtrate)
Format: physicochemical
Details: pH of the filtrate, CPD A solutions
Recorded pH of Solution for the following molecules

Past entries and their recorded results:
molecule | pH of Solution
CCn1cc(C(=O)O)c(=O)c2cc(F)c(N3CCNCC3)cc21 [A Gluconic] | 4.3
CCn1cc(C(=O)O)c(=O)c2cc(F)c(N3CCNCC3)cc21 [A Lactobionic] | 4.65

# input Need pH of Solution, item CCn1cc(C(=O)O)c(=O)c2cc(F)c(N3CCNCC3)cc21 [A Isethionic]
# output 1.35

# input Need pH of Solution, item CCn1cc(C(=O)O)c(=O)c2cc(F)c(N3CCNCC3)cc21 [A Acetic]
# output 5.3

# input Need pH of Solution, item CCn1cc(C(=O)O)c(=O)c2cc(F)c(N3CCNCC3)cc21 [A Tartaric]
# output 3.02

* * *

Assay: Solubility of lyophilized and crystalline solids
Type: physicochemical
Details: crystalline solid; not necessarily maximum value; read-out: Conc. of CPD A mg/ml Cryst.
observation_type: solubility (mg/mL)
Express it in mg/mL; write the number only.

# input Need solubility, item CCn1cc(C(=O)O)c(=O)c2cc(F)c(N3CCNCC3)cc21 [A D-Galacturonic]
# output 183

* * *

Assay: 10x dilution of soluble forms with standard IV solutions (pH, precipitate)
Format: physicochemical
Details: Cpd A salt solution diluted 10x with 5% Dextrose
observation_type: Solution 2 pH dil
Respond numerically, and do not add a unit to the figure.

molecule | observation_type | experimental_value
CCn1cc(C(=O)O)c(=O)c2cc(F)c(N3CCNCC3)cc21 [A L-Cysteic] | Solution 2 pH dil | 2.82
CCn1cc(C(=O)O)c(=O)c2cc(F)c(N3CCNCC3)cc21 [A L-Aspartic] | Solution 2 pH dil | 4.83
CCn1cc(C(=O)O)c(=O)c2cc(F)c(N3CCNCC3)cc21 [A D-Gluconic] | Solution 2 pH dil | 4.3

# input Need Solution 2 pH dil, item CCn1cc(C(=O)O)c(=O)c2cc(F)c(N3CCNCC3)cc21 [A D-Galacturonic]
# output 5.18

# input Need Solution 2 pH dil, item CCn1cc(C(=O)O)c(=O)c2cc(F)c(N3CCNCC3)cc21 [A Lactic]
# output 4.8

# input Need Solution 2 pH dil, item CCn1cc(C(=O)O)c(=O)c2cc(F)c(N3CCNCC3)cc21 [A Hydrochloric]
# output 2.8

* * *

Assay: Solubility of lyophilized and crystalline solids
Type: physicochemical
Settings: lyophilized solid; not necessarily maximum value; read-out: Conc. of CPD B mg/ml Lyo.
observation_type: solubility (mg/mL)
Express it in mg/mL; write the number only.

# input Need solubility, item `CCn1cc(C(=O)O)c(=O)c2cc(F)c(N3CCNCC3)nc21`
# output 200

* * *

Assay: Solubility of lyophilized and crystalline solids
Format: physicochemical
Conditions: CPD A salt, crystalline solid
Mark label 0 for pH of Solution Cryst. values under 5, and label 1 for everything at or above.

Known results for compounds:
compound | group_label
CCn1cc(C(=O)O)c(=O)c2cc(F)c(N3CCNCC3)cc21 [A L-Glutamic] | label 1
CCn1cc(C(=O)O)c(=O)c2cc(F)c(N3CCNCC3)cc21 [A Lactic] | label 1

# input Dear colleague, could you confirm whether CCn1cc(C(=O)O)c(=O)c2cc(F)c(N3CCNCC3)cc21 [A L-Aspartic] has pH of Solution Cryst. at or above 5?
# output label 0

# input Dear colleague, could you confirm whether CCn1cc(C(=O)O)c(=O)c2cc(F)c(N3CCNCC3)cc21 [A D-Gluconic] has pH of Solution Cryst. at or above 5?
# output label 0
